Item-by-item account of pIC50
tgt: MLK-7 (Homo sapiens)
Construct: GST; His tag
Sequence (Q9NYL2 1-455 isoform Q9NYL2-2): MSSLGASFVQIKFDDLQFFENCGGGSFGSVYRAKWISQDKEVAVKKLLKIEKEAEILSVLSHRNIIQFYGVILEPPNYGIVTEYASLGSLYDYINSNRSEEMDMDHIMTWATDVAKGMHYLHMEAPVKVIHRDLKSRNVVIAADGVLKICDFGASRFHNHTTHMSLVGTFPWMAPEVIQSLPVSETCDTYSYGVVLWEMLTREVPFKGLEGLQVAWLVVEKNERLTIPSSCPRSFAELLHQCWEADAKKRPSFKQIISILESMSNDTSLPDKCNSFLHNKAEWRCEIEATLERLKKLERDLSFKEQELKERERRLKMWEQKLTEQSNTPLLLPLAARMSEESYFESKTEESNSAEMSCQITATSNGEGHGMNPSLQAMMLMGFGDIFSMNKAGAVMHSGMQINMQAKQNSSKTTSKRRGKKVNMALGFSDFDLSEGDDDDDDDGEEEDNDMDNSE
assay comment: In vitro assay of purified MLK-7 kinase activity (33P transfer from ATP to myelin basic protein)
experimental parameters: recombinant GST-tagged MLK-7 at 1 nm, 30 uM ATP, 5 uM MBP substrate, 2 hours room temperature; read-out: MLK7 IC50
pIC50: −log10 of the molar value.

{"substance smiles": "CC(C)(C)OC(=O)CC[C@H](NC(=O)c1ccc(-c2ccc3c(-c4c(-c5ccccn5)nn5c4CCC5)ccnc3c2)cc1)C(=O)OC(C)(C)C", "pIC50": "≥ 6.00"}
{"substance smiles": "NC(=O)CCCc1ccc(-c2ccc3c(-c4c(-c5ccccn5)nn5c4CCC5)ccnc3c2)cc1", "pIC50": "≥ 7.00"}
{"substance smiles": "O=C(c1ccc(-c2ccc3c(-c4c(-c5ccccn5)nn5c4CCC5)ccnc3c2)cc1)N1CCCCC1", "pIC50": "≥ 7.00"}

Challenge: Return pIC50 (reported value) for this compound: CSC[C@@H](NC(=O)c1ccc(-c2ccc3c(-c4c(-c5ccccn5)nn5c4CCC5)ccnc3c2)cc1)C(=O)OC(C)(C)C
Response given: ≥ 6.00

Challenge: Return pIC50 (reported value) for this compound: COc1ccc(-c2ccc3c(-c4c(-c5ccccn5)nn5c4CCC5)ccnc3c2)nn1.O=C(O)C(F)F
Response given: ≥ 7.00

Challenge: Return pIC50 (reported value) for this compound: c1ccc(-c2nn3c(c2-c2ccnc4cc(-c5ccco5)ccc24)CCC3)nc1
Response given: ≥ 7.00
